Measured IC50 of individual entries
Target: GABA B receptor (Rattus norvegicus, UniProt O88871+Q9Z0U4)
Sequence (Q9Z0U4 whole entry): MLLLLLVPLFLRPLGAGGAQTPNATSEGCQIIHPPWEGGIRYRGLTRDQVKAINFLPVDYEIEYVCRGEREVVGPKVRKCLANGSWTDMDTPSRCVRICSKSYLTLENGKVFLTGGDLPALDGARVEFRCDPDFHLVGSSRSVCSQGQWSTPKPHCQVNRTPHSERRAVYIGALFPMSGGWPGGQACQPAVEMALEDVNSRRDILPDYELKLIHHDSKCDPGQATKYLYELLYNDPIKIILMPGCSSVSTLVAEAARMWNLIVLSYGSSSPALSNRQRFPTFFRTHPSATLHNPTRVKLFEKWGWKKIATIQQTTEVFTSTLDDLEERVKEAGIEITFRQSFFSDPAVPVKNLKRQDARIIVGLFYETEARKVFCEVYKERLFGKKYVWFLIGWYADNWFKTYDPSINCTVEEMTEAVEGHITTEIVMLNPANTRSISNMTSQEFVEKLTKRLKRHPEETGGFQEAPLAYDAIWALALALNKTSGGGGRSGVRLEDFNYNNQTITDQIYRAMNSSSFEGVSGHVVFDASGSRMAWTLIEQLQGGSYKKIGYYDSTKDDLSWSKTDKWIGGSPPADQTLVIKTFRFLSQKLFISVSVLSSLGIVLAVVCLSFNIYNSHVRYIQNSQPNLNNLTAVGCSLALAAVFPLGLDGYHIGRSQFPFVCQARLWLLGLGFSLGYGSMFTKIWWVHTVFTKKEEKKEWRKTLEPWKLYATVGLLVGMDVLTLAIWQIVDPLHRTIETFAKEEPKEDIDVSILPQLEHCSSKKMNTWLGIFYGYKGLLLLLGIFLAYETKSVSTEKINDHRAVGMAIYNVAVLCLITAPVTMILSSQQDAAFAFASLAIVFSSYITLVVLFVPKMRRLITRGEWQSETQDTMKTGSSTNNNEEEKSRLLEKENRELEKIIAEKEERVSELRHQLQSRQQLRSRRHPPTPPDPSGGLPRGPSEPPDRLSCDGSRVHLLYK
Sequence (O88871 whole entry): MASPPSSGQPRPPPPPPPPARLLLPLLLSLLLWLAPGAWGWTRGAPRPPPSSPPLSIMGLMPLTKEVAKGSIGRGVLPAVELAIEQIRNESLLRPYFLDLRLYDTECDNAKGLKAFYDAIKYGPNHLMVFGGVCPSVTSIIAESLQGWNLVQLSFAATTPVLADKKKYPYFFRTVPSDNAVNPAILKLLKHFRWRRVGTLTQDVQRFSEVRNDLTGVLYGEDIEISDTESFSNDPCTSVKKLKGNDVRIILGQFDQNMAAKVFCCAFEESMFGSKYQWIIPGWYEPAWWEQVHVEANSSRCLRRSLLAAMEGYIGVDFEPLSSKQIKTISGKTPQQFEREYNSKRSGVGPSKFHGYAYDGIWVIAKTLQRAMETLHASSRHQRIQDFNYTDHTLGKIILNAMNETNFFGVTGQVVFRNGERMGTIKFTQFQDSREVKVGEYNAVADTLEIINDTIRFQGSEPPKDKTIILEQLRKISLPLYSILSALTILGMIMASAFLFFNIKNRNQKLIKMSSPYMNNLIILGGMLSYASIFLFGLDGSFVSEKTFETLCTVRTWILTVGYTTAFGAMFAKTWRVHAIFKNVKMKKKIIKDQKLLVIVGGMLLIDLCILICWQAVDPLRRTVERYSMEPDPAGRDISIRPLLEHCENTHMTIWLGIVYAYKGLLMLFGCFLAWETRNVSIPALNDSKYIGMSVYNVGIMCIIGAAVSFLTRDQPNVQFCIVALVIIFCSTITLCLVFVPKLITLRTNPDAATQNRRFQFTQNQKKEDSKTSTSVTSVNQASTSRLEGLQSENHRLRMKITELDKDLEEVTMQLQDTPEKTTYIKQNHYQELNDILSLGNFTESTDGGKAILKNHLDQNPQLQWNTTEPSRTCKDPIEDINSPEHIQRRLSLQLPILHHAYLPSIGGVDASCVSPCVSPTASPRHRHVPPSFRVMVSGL
Assay: Displacement of [3H]baclofen from Gamma-aminobutyric acid type B receptor of rat brain membranes
Readout Kind: IC50

INSERT INTO assay_data (compound, readout_kind, assay_value) VALUES
  ('NCC(CC(=O)O)c1cc2ccccc2o1 (stereo not drawn)', 'IC50', '18 µM'),
  ('NCC(CC(=O)O)c1ccc(OCc2ccc(F)cc2)cc1 (stereo not drawn)', 'IC50', '> 100 µM'),
  ('Cn1c(=O)oc2cc(C(CN)CC(=O)O)ccc21 (stereo not drawn)', 'IC50', '> 100 µM'),
  ('NCC(CC(=O)O)c1ccc(OCc2ccccc2)cc1 (stereo not drawn)', 'IC50', '> 100 µM'),
  ('COc1ccc2c(c1)CC(C(CN)CC(=O)O)O2 (stereo not drawn)', 'IC50', '> 100 µM'),
  ('COc1ccc2oc(C(CN)CC(=O)O)cc2c1 (stereo not drawn)', 'IC50', '5.6 µM'),
  ('NCC(CC(=O)O)c1ccc(O)cc1 (stereo not drawn)', 'IC50', '> 100 µM'),
  ('NCC(CC(=O)O)C1Cc2ccccc2O1 (stereo not drawn)', 'IC50', '> 100 µM');
